tested_system: AXL (human catalytic domain) (Homo sapiens)
Construct: purchased Upstate Ltd. 14-512
experiment_description: AXL (human catalytic domain) Enzyme Activity Assay (IMAP fluorescence polarisation)
Format: biochemical
cond: further data set (WW-001 through WW-169, XX-001 through XX-469, YY-001 through YY-016, ZZ-001 through ZZ-003); 150 μM ATP
pIC50: −log10 of the molar value.
assay_endpoint: pIC50

Q: Give the measured pIC50 of c1cc(Nc2nc3cccc(-c4ccc5c(c4)OCCO5)n3n2)cc(OCCN2CCCC2)c1 .
Result: 6.00 to 7.00

###

tested_system: AXL (human catalytic domain) (Homo sapiens, UniProt P30530)
Construct: purchased Upstate Ltd. 14-512
experiment_description: AXL (human catalytic domain) Enzyme Activity Assay (IMAP fluorescence polarisation)
Type: biochemical
cond: further data set (WW-001 through WW-169, XX-001 through XX-469, YY-001 through YY-016, ZZ-001 through ZZ-003); 150 μM ATP
pIC50: −log10 of the molar value.
This listing pairs compounds with measured pIC50.

// solved cases for pIC50 follow
{"compound": "COc1ccc(-c2cccc3nc(Nc4cccc(C(=O)NCCO)c4)nn23)cc1", "tested_system": "AXL (human catalytic domain) (Homo sapiens, UniProt P30530)", "assay_endpoint": "pIC50", "result": "6.00 to 7.00"}
{"compound": "COc1cc(-c2cccc3nc(Nc4ccc(OCCN5CCCC5)cc4)nn23)ccc1F", "tested_system": "AXL (human catalytic domain) (Homo sapiens, UniProt P30530)", "assay_endpoint": "pIC50", "result": "6.00 to 7.00"}

Q: Give the measured pIC50 of O=C(Nc1nc2cccc(-c3ccccc3F)n2n1)C1CC1 .
Result: 5.00 to 6.00

Q: Give the measured pIC50 of COc1c(C)cc(-c2cccc3nc(Nc4ccc(OCCN5CCCC5)cc4)nn23)cc1C .
Result: 6.00 to 7.00

###

tested_system: AXL (human catalytic domain) (Homo sapiens, UniProt P30530)
Construct: purchased Upstate Ltd. 14-512
Sequence (P30530 473-894): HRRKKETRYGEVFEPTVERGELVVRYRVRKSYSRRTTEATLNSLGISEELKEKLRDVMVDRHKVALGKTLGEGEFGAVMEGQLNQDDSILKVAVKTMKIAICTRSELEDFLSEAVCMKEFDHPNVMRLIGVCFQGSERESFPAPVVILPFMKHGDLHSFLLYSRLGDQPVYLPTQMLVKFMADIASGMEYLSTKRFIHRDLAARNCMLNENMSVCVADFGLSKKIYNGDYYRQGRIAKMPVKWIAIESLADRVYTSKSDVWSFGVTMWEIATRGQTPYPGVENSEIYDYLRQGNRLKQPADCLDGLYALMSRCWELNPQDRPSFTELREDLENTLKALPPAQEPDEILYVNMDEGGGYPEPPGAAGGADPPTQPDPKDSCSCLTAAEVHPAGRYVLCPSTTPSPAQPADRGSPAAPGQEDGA
experiment_description: AXL (human catalytic domain) Enzyme Activity Assay (IMAP fluorescence polarisation)
Format: biochemical
cond: first data set; recombinant AXL isoform 1 aa473-894, 150 μM ATP
assay_endpoint: IC50

// solved cases for IC50 follow
{"smiles_input": "CN1CCN(CCOc2ccc(Nc3nc4cccc(-c5ccc6c(c5)OCCO6)n4n3)cc2)CC1", "result": "< 1000 nM"}
{"smiles_input": "CN(C)C/C=C/c1ccc(Nc2nc3cccc(-c4ccc5c(c4)OCCO5)n3n2)cc1", "result": "< 1000 nM"}
{"smiles_input": "O=C(Nc1nc2cccc(-c3ccc(N4CCOCC4)nc3)n2n1)C1CC1", "result": "1000 to 10000 nM"}
{"smiles_input": "COc1ccc(-c2cccc3nc(Nc4cccc(N)c4)nn23)cc1", "result": "1000 to 10000 nM"}
{"smiles_input": "COc1ccc(-c2cccc3nc(NC(=O)CC4CC4)nn23)cc1", "result": "1000 to 10000 nM"}
{"smiles_input": "O=C(Nc1nc2cccc(-c3ccc4c(c3)CCO4)n2n1)C1CC1", "result": "< 1000 nM"}
{"smiles_input": "CCOc1ccc(-c2cccc3nc(NC(=O)C4CC4)nn23)cc1", "result": "< 1000 nM"}
{"smiles_input": "Cc1csc(-c2cccc3nc(NC(=O)C4CC4)nn23)c1", "result": "1000 to 10000 nM"}

Q: Give the measured IC50 of CS(=O)(=O)Nc1ccc(-c2cccc3nc(NC(=O)C4CC4)nn23)cc1 .
Result: 1000 to 10000 nM

###

tested_system: AXL (human catalytic domain) (Homo sapiens)
Construct: purchased Upstate Ltd. 14-512
Sequence (P30530 473-894): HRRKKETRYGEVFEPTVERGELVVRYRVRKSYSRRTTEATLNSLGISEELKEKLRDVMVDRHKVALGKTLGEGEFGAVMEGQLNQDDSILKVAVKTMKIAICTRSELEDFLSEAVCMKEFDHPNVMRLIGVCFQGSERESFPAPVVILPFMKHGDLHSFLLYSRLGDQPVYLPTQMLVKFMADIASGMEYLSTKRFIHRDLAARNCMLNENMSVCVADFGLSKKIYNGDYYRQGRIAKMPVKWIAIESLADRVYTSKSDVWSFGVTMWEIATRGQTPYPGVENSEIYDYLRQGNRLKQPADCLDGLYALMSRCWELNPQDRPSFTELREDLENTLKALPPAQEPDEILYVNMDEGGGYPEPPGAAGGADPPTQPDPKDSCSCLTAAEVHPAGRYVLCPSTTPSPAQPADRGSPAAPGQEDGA
experiment_description: AXL (human catalytic domain) Enzyme Activity Assay (IMAP fluorescence polarisation)
Assay type: biochemical
cond: further data set (WW-001 through WW-169, XX-001 through XX-469, YY-001 through YY-016, ZZ-001 through ZZ-003); 150 μM ATP
pIC50: −log10 of the molar value.
assay_endpoint: pIC50

// solved cases for pIC50 follow
{"compound": "Cc1ccccc1COc1cccc(-c2cccc3nc(Nc4ccc(OCCN5CCCC5)cc4)nn23)c1 [XX-400]", "pIC50": "5.00 to 6.00"}
{"compound": "c1cc(-c2ccc3occc3c2)n2nc(Nc3ccc(N4CCNCC4)cc3)nc2c1 [XX-058]", "pIC50": "≥ 7.00"}
{"compound": "O=C(NCCN1CCCC1)c1ccc(Nc2nc3cccc(-c4ccc5c(c4)OCCO5)n3n2)cc1 [XX-110]", "pIC50": "≥ 7.00"}
{"compound": "COc1ccc(-c2cccc3nc(NC(=O)C4CC4)nn23)cc1 [WW-005]", "pIC50": "6.00 to 7.00"}
{"compound": "O=C(CN1CCCC1)Nc1cccc(Nc2nc3cccc(-c4ccc5c(c4)OCCO5)n3n2)c1 [XX-107]", "pIC50": "6.00 to 7.00"}

Q: Give the measured pIC50 of CSc1ccc(-c2cccc3nc(NC(=O)C4CC4)nn23)cc1 [WW-136] .
Result: 5.00 to 6.00

Q: Give the measured pIC50 of COc1ccc(-c2cccc3nc(Nc4cccc(N(C)C(=O)C(C)N5CCOCC5)c4)nn23)cc1 (centres unmarked) [XX-391] .
Result: 6.00 to 7.00

Q: Give the measured pIC50 of CCN(CC)CCCNc1cccc(Nc2nc3cccc(-c4ccc5c(c4)OCCO5)n3n2)c1 [XX-130] .
Result: ≥ 7.00

Q: Give the measured pIC50 of Cc1cc(C)cc(-c2cccc3nc(Nc4ccc(OCCN5CCCC5)cc4)nn23)c1 [XX-292] .
Result: 6.00 to 7.00

Q: Give the measured pIC50 of CN(C(=O)CN1CCCC1)c1ccc(Nc2nc3cccc(-c4ccc5c(c4)OCCO5)n3n2)cc1 [XX-153] .
Result: ≥ 7.00

Q: Give the measured pIC50 of O=C(Nc1cccc(-c2cccc3nc(Nc4ccc(OCCN5CCCC5)cc4)nn23)c1)c1cccnc1 [XX-180] .
Result: 6.00 to 7.00

Q: Give the measured pIC50 of O=C(Nc1nc2cccc(-c3ccc(N4CCNCC4)cc3)n2n1)C1CC1 [WW-151] .
Result: 5.00 to 6.00

Q: Give the measured pIC50 of O=C(Nc1nc2cccc(-c3cn[nH]c3)n2n1)C1CC1 [WW-060] .
Result: 5.00 to 6.00

###

tested_system: AXL (human catalytic domain) (Homo sapiens, UniProt P30530)
Construct: purchased Upstate Ltd. 14-512
experiment_description: AXL (human catalytic domain) Enzyme Activity Assay (IMAP fluorescence polarisation)
Assay type: biochemical
cond: further data set (WW-001 through WW-169, XX-001 through XX-469, YY-001 through YY-016, ZZ-001 through ZZ-003); 150 μM ATP
assay_endpoint: IC50

{"compound": "CN1CCN(CCC(=O)Nc2nc3cccc(-c4ccc5c(c4)OCCO5)n3n2)CC1 [WW-169]", "tested_system": "AXL (human catalytic domain) (Homo sapiens, UniProt P30530)", "IC50": "1 to 10 µM"}
{"compound": "COc1ccccc1COc1cccc(-c2cccc3nc(Nc4ccc(OCCN5CCCC5)cc4)nn23)c1 [XX-338]", "tested_system": "AXL (human catalytic domain) (Homo sapiens, UniProt P30530)", "IC50": "1 to 10 µM"}

Q: Give the measured IC50 of O=C(Nc1nc2ccnc(-c3ccc4c(c3)OCCO4)n2n1)C1CC1 [ZZ-001] .
Result: 0.1 to 1 µM

Q: Give the measured IC50 of CCN(CC)CCOc1cc(Nc2nc3cccc(-c4cnn(Cc5ccccc5)c4)n3n2)ccn1 [XX-387] .
Result: 0.1 to 1 µM

Q: Give the measured IC50 of COc1ccc(-c2cccc3nc(Nc4cccc(N)c4)nn23)cc1 [XX-061] .
Result: 1 to 10 µM

Data origin: patent US8431596B2
